assay: gradient 5% acetonitrile 3 min, to 50% in 2 min, to 85% in 15 min, held 3 min, 100 µL/min; conditions: column: Zorbax Extend-C18 2.1 x 50 mm; eluents: water / acetonitrile, 0.1% formic acid
molecules and their reported RP-LC retention time
measured parameter: RP-LC retention time (s)

[[record]]
molecule = "O=C(Cn1nc2n(c1=O)CCCCC2)Nc1ccc2c(c1)OCO2"
measured_parameter = "RP-LC retention time"
unit_info = "s"
experimental_result = 655

[[record]]
molecule = "CCC(C)NC(=O)C1CCCN1S(=O)(=O)c1cc2c(cc1C)NC(=O)CO2 (stereo not drawn)"
measured_parameter = "RP-LC retention time"
unit_info = "s"
experimental_result = 710

[[record]]
molecule = "Cc1ccc(-c2cc3n(n2)C(NCCc2cccs2)CNC3=O)cc1 (stereo not drawn)"
measured_parameter = "RP-LC retention time"
unit_info = "s"
experimental_result = 739


---

test: gradient 5% acetonitrile 3 min, to 50% in 2 min, to 85% in 15 min, held 3 min, 100 µL/min; conditions: column: Zorbax Extend-C18 2.1 x 50 mm; eluents: water / acetonitrile, 0.1% formic acid
Each entry falls into one class according to its RP-LC retention time; the ranges are range 1: < 700 s; range 2: ≥ 700 s and < 900 s; range 3: ≥ 900 s

[[record]]
compound = "COc1ccc(NC(=O)[C@@H]2c3ccccc3C(=O)N3CCCC[C@@H]23)c(OC)c1"
label_value = "range 2"

[[record]]
compound = "O=C(c1cn(-c2ccc(S(=O)(=O)N3CCCCC3)cc2)cn1)N1CCN(c2ccccn2)CC1"
label_value = "range 1"

[[record]]
compound = "CCc1cccc(NC(=O)CSc2cc(N3CCN(c4ccccc4OC)CC3)ncn2)c1"
label_value = "range 3"

[[record]]
compound = "Cn1nc(Br)nc1Sc1ccccc1NC(=O)C1CC1"
label_value = "range 2"

[[record]]
compound = "O=C(c1ccncc1)N1CCc2c([nH]c3ccccc23)C1c1ccccc1 (stereo unspecified)"
label_value = "range 2"

[[record]]
compound = "Cc1cc(N2CCN(C(=O)Nc3cccc(Cl)c3)CC2)nc(N2CCOCC2)n1"
label_value = "range 1"

[[record]]
compound = "C=CCN(C)C(=O)c1cnn2c3c(cnc12)CCCCCC3"
label_value = "range 2"

[[record]]
compound = "COc1ccc(-c2noc(CN3C(=O)COc4cc(Cl)ccc43)n2)cc1OC"
label_value = "range 3"

[[record]]
compound = "CCOc1ccc2nc(NC(=O)Cc3csc4nc(-c5ccc(OC)c(OC)c5)cn34)sc2c1"
label_value = "range 2"

[[record]]
compound = "O=C(O)CCCCC1SCC2NC(=O)NC21 (stereo unspecified)"
label_value = "range 1"

[[record]]
compound = "O=S(=O)(Nc1cccnc1)c1cc(-c2nnc(-c3ccccc3)o2)ccc1F"
label_value = "range 2"

[[record]]
compound = "CN(C)c1ccc(C(=O)N2CCN(C(=O)c3nnn4c3COC(c3ccc(Cl)cc3)C4)CC2)cc1 (stereo unspecified)"
label_value = "range 3"


---

Measured RP-LC retention time of individual entries
test: gradient 5% acetonitrile 3 min, to 50% in 2 min, to 85% in 15 min, held 3 min, 100 µL/min; conditions: column: Zorbax Extend-C18 2.1 x 50 mm; eluents: water / acetonitrile, 0.1% formic acid
measured parameter: RP-LC retention time (s)

[[record]]
molecule = "Cc1sc(-c2nnc(C3CCC3)o2)cc1NC(=O)Cc1ccc(F)cc1"
experimental_result = 1020

[[record]]
molecule = "CSc1ccc(CNC(=O)C2CCCN(c3nccc(C)n3)C2)cc1 (configuration not stated)"
experimental_result = 763

[[record]]
molecule = "CC(N)c1cccc(Cl)c1Cl (configuration not stated)"
experimental_result = 636

[[record]]
molecule = "CCn1cnc(S(=O)(=O)N2CCC(C(=O)NC3CCCCCC3)CC2)c1"
experimental_result = 737

[[record]]
molecule = "O=C(CSc1ccc(F)cc1)N1CCCC(c2nnc(-c3ccc4c(c3)OCO4)o2)C1 (configuration not stated)"
experimental_result = 810

[[record]]
molecule = "Cc1nc(C)c(-c2ccc(SCC(=O)Nc3ccc4c(c3)OCCO4)nn2)s1"
experimental_result = 690

[[record]]
molecule = "Cc1cccc(-c2nc3c4ccccc4nc(N4CCN(c5ccccn5)CC4)n3n2)c1"
experimental_result = 921


---

test: gradient 5% acetonitrile 3 min, to 50% in 2 min, to 85% in 15 min, held 3 min, 100 µL/min; conditions: column: Zorbax Extend-C18 2.1 x 50 mm; eluents: water / acetonitrile, 0.1% formic acid
measured parameter: RP-LC retention time (s)

[[record]]
compound = "Cc1nc2sc(C)c(C)n2c(=O)c1NC(=O)c1ccc(Br)o1"
experimental_result = 688

[[record]]
compound = "O=C(Nc1ncnc2sccc12)C1COc2ccccc2O1 (centres undefined)"
experimental_result = 718

[[record]]
compound = "CCOC(=O)C1CCN(C(=O)C2CCN(S(=O)(=O)c3ccc4c(c3)CCCC(=O)N4)CC2)CC1"
experimental_result = 713

[[record]]
compound = "COC(=O)N1CCN(C(=O)Cc2ccc(Cl)c(Cl)c2)C(CN2CCCC2)C1 (centres undefined)"
experimental_result = 688


---

assay: gradient 5% acetonitrile 3 min, to 50% in 2 min, to 85% in 15 min, held 3 min, 100 µL/min; settings: column: Zorbax Extend-C18 2.1 x 50 mm; eluents: water / acetonitrile, 0.1% formic acid
Output: class label from RP-LC retention time. Mapping: bin A = under 700 s, bin B = from 700 s up to 900 s, bin C = 900 s and over

[[record]]
compound = "COc1cccc(CNC(=O)C2(C)CCCN(C(=O)Nc3cc(Cl)ccc3OC)C2)c1 (stereo not given)"
label_value = "bin C"

[[record]]
compound = "COc1cccc(-n2cc(C(=O)OCc3cc(=O)n4ccccc4n3)c3ccccc3c2=O)c1"
label_value = "bin B"

[[record]]
compound = "Cn1ncc2c3ccccc3n(CCCC(=O)NCc3ccccc3F)c2c1=O"
label_value = "bin B"

[[record]]
compound = "CCCS(=O)(=O)N1CC(=O)N(c2ccc(C)c(Cl)c2)C(C)(C(=O)NC2CCCCC2)C1 (stereo not given)"
label_value = "bin C"

[[record]]
compound = "COCc1cc2nn(CC(=O)NC3CCCCC3)c(=O)n2c(-c2ccccc2)n1"
label_value = "bin B"

[[record]]
compound = "COc1cc(-c2nnc(-c3cccc(S(=O)(=O)N4CCOCC4)c3)o2)cc(OC)c1OC"
label_value = "bin B"

[[record]]
compound = "CC(C)c1ccc(NC(=O)c2cn(C)nc2S(=O)(=O)N2CCSCC2)cc1"
label_value = "bin C"

[[record]]
compound = "CCC(C(=O)NCc1ccccn1)n1c2ccccc2c2cnn(C)c(=O)c21 (stereo not given)"
label_value = "bin A"

[[record]]
compound = "Cc1noc(CNC(=O)c2n[nH]c3ccccc23)n1"
label_value = "bin A"

[[record]]
compound = "CC(=O)Nc1ccc(-c2nc(-c3ccc4c(c3)oc(=O)n4C)no2)cc1"
label_value = "bin B"

[[record]]
compound = "COc1ccc2c(c1)C=C(C(=O)NCCc1ccccc1)C=CO2"
label_value = "bin C"

[[record]]
compound = "CCOC(=O)c1cc(C)n(CC(=O)N2CCOCCNC(=O)CC2)c1C"
label_value = "bin A"

[[record]]
compound = "COc1ccc(C2CCCN2C(=O)c2ccn(C)n2)cc1 (stereo not given)"
label_value = "bin B"

[[record]]
compound = "CCC(CC)C(=O)N1CCC2(CC1)NCc1ccccc1-n1ccnc12"
label_value = "bin A"

[[record]]
compound = "CCCNc1cc(N2CCC(CCC(=O)N3CCN(c4ncccn4)CC3)CC2)ncn1"
label_value = "bin A"

[[record]]
compound = "O=C(COc1ccccc1)N1CCN(c2nc(CN3CCCCC3)cs2)CC1"
label_value = "bin A"

[[record]]
compound = "COCCNCc1ccc(-c2ccc(Br)cc2)o1"
label_value = "bin A"

[[record]]
compound = "COc1cc(=O)oc(/C=C/C=C/C=C/C(C)=C/C2(C)OC(C)C(C)(O)C2O)c1C (stereo not given)"
label_value = "bin B"

[[record]]
compound = "COCCCNc1c(-c2ccc(F)cc2)nc2sc(C(=O)N3CCOCC3)c(C)n12"
label_value = "bin B"


---

assay: gradient 5% acetonitrile 3 min, to 50% in 2 min, to 85% in 15 min, held 3 min, 100 µL/min; details: column: Zorbax Extend-C18 2.1 x 50 mm; eluents: water / acetonitrile, 0.1% formic acid
Below, each entry is listed with its recorded RP-LC retention time.
measured parameter: RP-LC retention time (s)

[[record]]
compound = "Cc1ccc(-c2nc(C)cc(OCC(=O)Nc3c(C)cc(C)cc3C)n2)cc1"
measured_parameter = "RP-LC retention time"
experimental_result = 1130

[[record]]
compound = "COc1ccccc1C1=NN(C(C)=O)C(C)(c2cccc(OC(C)=O)c2)O1 (centres undefined)"
measured_parameter = "RP-LC retention time"
experimental_result = 852

[[record]]
compound = "COc1ccccc1C(=O)NC1CCN(c2ccccc2)C1=O (centres undefined)"
measured_parameter = "RP-LC retention time"
experimental_result = 789

[[record]]
compound = "COc1ccc(Cl)cc1NC(=O)c1cc(C2CC2)n2nccc2n1"
measured_parameter = "RP-LC retention time"
experimental_result = 1210

[[record]]
compound = "CC1CCN(S(=O)(=O)c2ccc(-c3nnc(C(=O)NCCC4=CCCCC4)o3)cc2)CC1"
measured_parameter = "RP-LC retention time"
experimental_result = 1190

[[record]]
compound = "COc1ccc(/C=C\\c2onc(C)c2NC(C)=O)cc1S(=O)(=O)N1CCN(c2ccccn2)CC1"
measured_parameter = "RP-LC retention time"
experimental_result = 612

[[record]]
compound = "O=C(NC1CC1)c1ccc(OCC2CCN(C(=O)Cc3cccs3)CC2)cc1"
measured_parameter = "RP-LC retention time"
experimental_result = 780

[[record]]
compound = "CN(C)c1ccc(CNC(=O)C2CCN(c3cncnc3N3CCCCC3)CC2)cc1"
measured_parameter = "RP-LC retention time"
experimental_result = 564

[[record]]
compound = "O=C(CSc1ccc(N2CCCC(C(=O)NC3CC3)C2)nn1)Nc1cccc(F)c1 (centres undefined)"
measured_parameter = "RP-LC retention time"
experimental_result = 611

[[record]]
compound = "Cc1ccc(-c2nc3nc(C)cc(C)n3c2Nc2ccc(C(C)C)cc2)cc1"
measured_parameter = "RP-LC retention time"
experimental_result = 870

[[record]]
compound = "O=C(CN1C(=O)CN(C(=O)NCc2ccccc2)c2ccccc21)NCCc1ccco1"
measured_parameter = "RP-LC retention time"
experimental_result = 803

[[record]]
compound = "O=C(Cc1cccs1)NCCN1CCN(c2ccc(Cl)cc2)CC1"
measured_parameter = "RP-LC retention time"
experimental_result = 583

[[record]]
compound = "COc1ccc(-c2nc3cc(C)ccn3c2NC(=O)c2ccc(Cl)cc2Cl)cc1"
measured_parameter = "RP-LC retention time"
experimental_result = 753

[[record]]
compound = "CC(NC(=O)Cc1ccc(Cl)cc1)C(=O)Nc1nc2ccccc2[nH]1 (centres undefined)"
measured_parameter = "RP-LC retention time"
experimental_result = 680

[[record]]
compound = "CC(C)N1C(=O)c2cccnc2Sc2cc(NC(=O)Cc3ccccc3Cl)ccc21"
measured_parameter = "RP-LC retention time"
experimental_result = 906

[[record]]
compound = "COc1ccc(C2CCCN2C(=O)c2c(C)noc2C)cc1 (centres undefined)"
measured_parameter = "RP-LC retention time"
experimental_result = 746

[[record]]
compound = "O=C(C1=COCCO1)N1CCN(c2ccccc2)CC1"
measured_parameter = "RP-LC retention time"
experimental_result = 694

[[record]]
compound = "CCN1C(=O)c2c(C(=O)NCc3ccccc3F)ncn2CC1(C)C(=O)NC1CCCC1 (centres undefined)"
measured_parameter = "RP-LC retention time"
experimental_result = 741

[[record]]
compound = "O=C(Nc1nccs1)C1CCN(C(=O)c2cccc(C(F)(F)F)c2)CC1"
measured_parameter = "RP-LC retention time"
experimental_result = 728

